assay: Plasma levels and tolerability of estetrol after daily oral administration in female patients; format: in vivo, human; settings: human, plasma, 20 mg daily oral dose, read-out: Cmax plasma level
READOUT_NAME: Cmax

STRUCTURE_AS_SMILES	OBSERVED_VALUE
C[C@]12CC[C@@H]3c4ccc(O)cc4CC[C@H]3[C@@H]1[C@@H](O)[C@@H](O)[C@@H]2O	23.5 ng/mL

###

test: Plasma levels and tolerability of estetrol after daily oral administration in female patients; type: in vivo, human; details: human, plasma, 40 mg daily oral dose, read-out: Cmax plasma level
READOUT_NAME: Cmax (ng/mL)

COMPOUND	OBSERVED_VALUE
C[C@]12CC[C@@H]3c4ccc(O)cc4CC[C@H]3[C@@H]1[C@@H](O)[C@@H](O)[C@@H]2O [estetrol]	82.7

###

test: Plasma levels and tolerability of estetrol after daily oral administration in female patients; type: in vivo, human; details: human, plasma, 2 mg daily oral dose, read-out: Cmax plasma level
READOUT_NAME: Cmax (ng/mL)

STRUCTURE_AS_SMILES	READOUT_NAME	OBSERVED_VALUE
C[C@]12CC[C@@H]3c4ccc(O)cc4CC[C@H]3[C@@H]1[C@@H](O)[C@@H](O)[C@@H]2O	Cmax	1.3
